Reference for the values: patent US20100279997A1

- target.desc: μ opiate receptor (MOR) (Rattus norvegicus)
- Construct: from tissue; host or cells: striatal tissue (membrane preparation)
- Sequence (P33535 whole entry): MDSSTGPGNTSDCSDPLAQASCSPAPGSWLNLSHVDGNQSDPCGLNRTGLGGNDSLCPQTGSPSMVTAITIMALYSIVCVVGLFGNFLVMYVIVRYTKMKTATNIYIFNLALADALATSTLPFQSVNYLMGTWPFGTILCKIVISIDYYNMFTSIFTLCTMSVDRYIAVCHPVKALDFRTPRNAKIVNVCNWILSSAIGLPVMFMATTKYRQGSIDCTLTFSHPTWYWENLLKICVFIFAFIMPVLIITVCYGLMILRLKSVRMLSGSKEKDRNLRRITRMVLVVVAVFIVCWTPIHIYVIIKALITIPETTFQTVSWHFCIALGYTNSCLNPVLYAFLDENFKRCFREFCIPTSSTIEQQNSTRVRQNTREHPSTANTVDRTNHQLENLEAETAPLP
- protocol: MOR agonist activity, [35S]GTPγS binding assay using striatal membranes
- Type: biochemical
- measurement.parameters: 0.1 μM compound, striatal membranes
reported.metric: [35S]GTPγS binding to Gαo, FLNA-binding compound as agonist 0.1 μM (%)
Give a bare numeral; the unit % is implied.

Use these answered entries as a reference point.
{"compound": "CC1CN(CC(O)COc2ccccc2)CC(C)O1 (centres unmarked) [Compound A0025]", "readout.number": 58.6}
{"compound": "CC1CCC(C(C)C)C(OCC(O)CN2CCC2)C1 (centres unmarked) [Compound A0015]", "readout.number": 110.9}

query: Give its [35S]GTPγS binding to Gαo, FLNA-binding compound as agonist 0.1 μM value. Item: CC(=O)c1ccc(OCC(O)CN2CC(C)OC(C)C2)cc1 (centres unmarked) [Compound A0044]
result: 176.2

query: What [35S]GTPγS binding to Gαo, FLNA-binding compound as agonist 0.1 μM value was documented for this compound, COc1ccc(OCC(O)CN2CCC(=O)CC2)cc1 (centres unmarked) [Compound A0071] ?
result: 225.7

query: For the compound shown here, CC1CN(CC(O)COc2ccc(Br)c(Cl)c2)CC(C)O1 (centres unmarked) [Compound A0045] , give the reported [35S]GTPγS binding to Gαo, FLNA-binding compound as agonist 0.1 μM.
result: 143.9
